Test system: HL-60
experimental_details: In vitro inhibitory concentration against proliferation of HL60 cells
Type: functional, cell-based, Homo sapiens
details: Homo sapiens, HL-60
pIC50: −log10 of the molar value.
Measured pIC50 accompanies every entry in the list below.
endpoint_name: pIC50

* Oc1ccc(/C=C/c2cc(O)cc(O)c2)cc1 | 5.30
* COc1cc([C@@H]2c3cc4c(cc3[C@@H](O[C@@H]3O[C@@H]5CO[C@@H](C)O[C@H]5[C@H](O)[C@H]3O)[C@H]3COC(=O)[C@H]23)OCO4)cc(OC)c1O [ETOPOSIDE] | 6.91
* COc1cc(/C=C\c2ccc(O)c(OC)c2)cc(OC)c1 | 4.70
* Nc1ccn([C@@H]2O[C@H](CO)[C@@H](O)[C@@H]2O)c(=O)n1 | 7.10
* COc1cc(/C=C/c2ccc(O)cc2)cc(OC)c1 | 4.46

---

Test system: HL-60
experimental_details: In vitro inhibitory concentration against proliferation of HL60 cells
Format: functional, cell-based, Homo sapiens
details: Homo sapiens, HL-60
# key: entry, value: IC50
endpoint_name: IC50 (µM)

* Oc1ccc(/C=C\c2cc(O)cc(O)c2)cc1 [CIS-RESVERATROL] | 42
* COc1cccc2c1C(=O)c1c(O)c3c(c(O)c1C2=O)C[C@@](O)(C(C)=O)C[C@@H]3O[C@H]1C[C@H](N)[C@H](O)[C@H](C)O1 | 0.005
* COc1cc(/C=C\c2ccc(O[Si](C)(C)C(C)(C)C)cc2)cc(OC)c1 | 50
* COc1ccc(/C=C/c2cc(O)cc(O)c2)cc1N | 80
* COc1ccc(/C=C\c2cc(O)cc(O)c2)cc1N | 40
* COc1ccc(/C=C\c2cc(O)cc(O)c2)cc1O | 40
* COc1cc(/C=C/c2ccc(O[Si](C)(C)C(C)(C)C)cc2)cc(OC)c1 | 48
* COc1cc(/C=C/c2ccc(OC)c(O)c2)cc(OC)c1 | 0.7
* COc1cc(/C=C\c2ccc(O)cc2)cc(OC)c1 | 2
* COc1cc(/C=C\c2ccc(O)c(O)c2)cc(OC)c1 | 0.05
* COc1cc(/C=C/c2ccc(O)c(OC)c2)cc(OC)c1 | 25

---

Tested on: HL-60
experimental_details: In vitro inhibitory concentration against proliferation of HL60R cells along with 5 (uM) verapamil
Type: functional, cell-based
details: Homo sapiens
pIC50: −log10 of the molar value.
endpoint_name: pIC50

* COc1cc(/C=C\c2ccc(OC)c(O)c2)cc(OC)c1 | 7.70

// provenance: ChEMBL document CHEMBL1144989
